As shown below, each of these compounds has a reported % Parent Peak Remaining at 10:1 Solution of Metal:Compound value.
# protocol: Chelation study by ESI-MS, Cu^2+ solution
# Type: binding
# test-context: 10:1 metal:compound, 45 minutes of mixing
# output: number + unit

Sample answers from the record:
> print(dat)
                                   compound  result
1  CN(C)S(=O)(=O)N1C(=O)CN(c2ncccn2)CC1=O [JHX-3]    4.4%
2  COc1cc(OC)nc(N2CC(=O)N(S(=O)(=O)N(C)C)C(=O)C2)n1 [JHX-7]    3.4%
3  CN(C)S(=O)(=O)N1CCN(c2ncc(O)cn2)CC1 [JHX-2]  100.0%

// next item, % Parent Peak Remaining at 10:1 Solution of Metal:Compound requested
**Query** Using the record for COc1nc(N2CCN(S(=O)(=O)N(C)C)CC2)nc(OC)c1O [JHX-6] , report its % Parent Peak Remaining at 10:1 Solution of Metal:Compound.
**Result** 100.0%
